Cited source for all entries: patent US20140045746A1

Molecular target: hGPR40 (Homo sapiens, UniProt O14842)
Sequence (O14842 whole entry): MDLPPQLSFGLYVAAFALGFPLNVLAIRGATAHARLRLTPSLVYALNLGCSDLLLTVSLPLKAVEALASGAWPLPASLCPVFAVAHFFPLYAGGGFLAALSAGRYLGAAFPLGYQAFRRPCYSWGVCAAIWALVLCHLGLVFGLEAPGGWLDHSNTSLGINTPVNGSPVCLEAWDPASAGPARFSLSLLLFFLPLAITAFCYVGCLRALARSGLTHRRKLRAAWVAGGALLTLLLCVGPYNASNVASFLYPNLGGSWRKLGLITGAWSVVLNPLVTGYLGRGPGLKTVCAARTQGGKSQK
Test: GPR40 Inositol Phosphate Turnover (IP1) Assay
Assay type: cell-based
Design: expressed in transfected cells; host or cells: HEK cells stably expressing the aequorin reporter
Settings: HEK cells stably expressing human GPR40; 0% serum; read-out: hGPR40 IP1 EC50 (0% serum)
attribute-measured: EC50 (nM)
State just the number; it will be interpreted in nM.

Record excerpt, results attached:
smiles-code	EC50 (nM)
Cc1cc(OCCC2(O)CC2)cc(C)c1-c1cccc(COc2cc3c(cn2)[C@H]2[C@@H](C3)[C@@H]2C(=O)O)c1	8.6
Cc1cc(OCC2(C)COC2)cc(C)c1-c1ccc(F)c(COc2cc3c(cn2)[C@H]2[C@@H](C3)[C@@H]2C(=O)O)c1	9.1
O=C(O)[C@H]1[C@@H]2Cc3cc(OCc4cc(Oc5ccc(C(F)(F)F)cc5Cl)ccc4F)ncc3[C@@H]21	300
Cc1cc(OCCCS(C)(=O)=O)cc(C)c1-c1ccc(F)c(COc2cc3c(cn2)[C@H]2[C@@H](C3)[C@@H]2C(=O)O)c1	4

Problem: Item under review: Cc1cc(OCCC2(O)CC2)cc(C)c1-c1ccc(F)c(COc2cc3c(cn2)[C@H]2[C@@H](C3)[C@@H]2C(=O)O)c1 . Reported EC50?
Result: 12

Problem: CC(C)(O)COc1cc(C(F)(F)F)c(-c2cccc(COc3cc4c(cn3)[C@H]3[C@@H](C4)[C@@H]3C(=O)O)c2)cn1 ?
Result: 14
